Data origin: patent US7709494B2

Each entry below carries its recorded % activation @ 100 μM.
Molecular target: GPCR GPR40 (Homo sapiens, UniProt O14842)
Construct: expressed in transfected cells; host or cells: HEK293
Sequence (O14842 whole entry): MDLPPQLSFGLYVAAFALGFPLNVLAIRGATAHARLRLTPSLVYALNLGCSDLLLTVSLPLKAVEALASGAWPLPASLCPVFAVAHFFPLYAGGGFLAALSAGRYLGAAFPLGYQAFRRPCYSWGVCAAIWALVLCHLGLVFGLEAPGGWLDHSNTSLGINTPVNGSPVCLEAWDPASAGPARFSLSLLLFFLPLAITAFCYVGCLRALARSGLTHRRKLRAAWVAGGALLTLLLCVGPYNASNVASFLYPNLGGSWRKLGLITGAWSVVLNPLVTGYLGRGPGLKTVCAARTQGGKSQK
Assay: In vitro FLIPR assay with recombinant cells which express the GPCR GPR40 (agonist-induced intracellular Ca2+ change)
Type: cell-based
Settings: recombinant HEK293 cells expressing GPR40; 100 μM test substance; percentage change relative to control (0%: no test substance; 100%: 10 μM reference agonist linoleic acid)
Give just the numeric value; % need not be written.

Query: % activation @ 100 μM; subject: O=C(O)[C@H]1CC[C@@H](COc2ncc(-c3ccccc3)c(-c3ccccc3)n2)C1 (relative stereo)
76
